Test system: Neuropilin-2 / VEGF-C interaction (human)
Experiment: inhibitors of NRP2–VEGF-C binding, biochemical, microplate binding format, z-score (AID 743281); also: test concentration not given here
Conditions: microplate NRP2/VEGF-C binding assay; active compounds read low
z-score under 0.2 gets TRUE, anything at or over 0.2 gets FALSE.

>  <molecule>
Clc1cccc(Cl)c1NC1=NCCN1

>  <subjectOfTest>
Neuropilin-2 / VEGF-C interaction (human)

>  <labelValue>
TRUE

$$$$
>  <molecule>
NC(N)=NC(=O)c1nc(Cl)c(N)nc1N

>  <subjectOfTest>
Neuropilin-2 / VEGF-C interaction (human)

>  <labelValue>
TRUE

$$$$
>  <molecule>
OCCN1CCN(CCCN2c3ccccc3Sc3ccc(C(F)(F)F)cc32)CC1

>  <subjectOfTest>
Neuropilin-2 / VEGF-C interaction (human)

>  <labelValue>
FALSE

$$$$

API: query returns whether the molecule falls strictly under 0.2 in z-score. Query: Cc1ncc([N+](=O)[O-])n1CC(C)O (stereo not given)
FALSE

Just wondering, is z-score of CCCCCCCCCCC[C@@H](C[C@@H]1OC(=O)[C@H]1CCCCCC)OC(=O)[C@H](CC(C)C)NC=O below 0.2?
TRUE
